Exercise: for every item that follows, state its recorded CC50 at 7 days.
Experiment: In vitro cytotoxicity assay (MTT cell viability) in HepG2 cells
Assay type: cell-based, human
Conditions: human

Example compounds with recorded CC50 at 7 days:
Cc1cc(NC(=O)c2c(C)c(C(=O)C(=O)NC34CC(C3)C4)n(C)c2C)ccc1F; 5 to 30 µM
Cc1c(C(=O)Nc2cc(Cl)cc(Cl)c2)c(C)n(C)c1C(=O)C(=O)N[C@H]1CC[C@@H](O)CC1; 5 to 30 µM
Cc1cc(NC(=O)c2c(C(C)C)c(C(=O)C(=O)N[C@]3(C)C[C@H](O)C3)n(C)c2C)ccc1F; > 30 µM
CCC1(NC(=O)C(=O)c2c(C)c(C(=O)Nc3ccc(F)c(C)c3)c(C)n2C)CCN(C(=O)c2cnn(C)c2)CC1; > 30 µM
CCc1c(C(=O)Nc2ccc(F)c(C)c2)c(C)c(C(=O)C(=O)NCC(C)(C)O)n1C; > 30 µM

Report CC50 at 7 days for each item below.
1. Cc1c(C(=O)Nc2cc(Cl)nc(Cl)c2)c(C)n(C)c1C(=O)C(=O)N[C@]1(C)CC[C@H](O)CC1
2. Cc1cc(NC(=O)c2c(C)c(C(=O)C(=O)N[C@]3(C4CC4)CC[C@@H](O)CC3)n(C)c2C)ccc1F

> 30 µM
> 30 µM

###

Tested on: HepG2 cells
Test: In vitro cytotoxicity assay (MTT cell viability) in HepG2 cells
Type: cell-based, human
Conditions: HepG2 cells, 7 days incubation, MTT; read-out: HepG2 CC50
assay readout: CC50

Look up CC50: Cc1cc(NC(=O)c2c(C)c(C(=O)C(=O)NC3(C)CC(OP(=O)(O)O)C3)n(C)c2C)ccc1F (stereo not shown) [Example 64]
> 30 µM

###

Exercise: for every item that follows, state its recorded CC50 at 7 days.
Assay: In vitro cytotoxicity assay (MTT cell viability) in HepG2 cells
Assay type: cell-based, human
Conditions: human

Cc1cc(NC(=O)c2c(C)c(C(=O)C(=O)N[C@H]3CC[C@@H](OCC(=O)NCCOCCOCCOCCOCCOCCOCCOCCNC(=O)CCCCC4SCC5NC(=O)NC54)CC3)n(C)c2C)ccc1F (stereo partly shown); > 30 µM
CCc1c(C(=O)Nc2ccc(F)c(C)c2)c(C)n(C)c1C(=O)C(=O)N[C@]1(C)C[C@H](O)C1; > 30 µM

Report CC50 at 7 days for each item below.
1. Cc1cc(NC(=O)c2c(C)c(C(=O)C(=O)NC3(C)CCN(CC(=O)O)CC3)n(C)c2C)ccc1F
2. Cc1cc(NC(=O)c2c(C3CC3)c(C(=O)C(=O)NCC(C)(C)O)n(C)c2C)ccc1F
3. Cc1cc(NC(=O)c2c(C)c(C(=O)C(=O)N[C@]3(C)CC[C@H](O)CC3)n(C)c2CC2CC2)ccc1F
4. Cc1cc(NC(=O)c2c(C)c(C(=O)C(=O)N[C@@H]3CC[C@H](O)C[C@@H]3F)n(C)c2C)ccc1F

> 30 µM
> 30 µM
> 30 µM
5 to 30 µM

Report CC50 at 7 days for each item below.
1. Cc1cc(NC(=O)c2c(C3CC3)c(C(=O)C(=O)N[C@]3(C)C[C@H](O)C3)n(C)c2C)ccc1F
2. Cc1cc(NC(=O)c2c(C)c(C(=O)C(=O)NC3(CO)CCN(C(=O)c4ccnn4C)CC3)n(C)c2C)ccc1F
3. Cc1cc(NC(=O)c2c(C)c(C(=O)C(=O)NCC(C)(C)O)n(C)c2CC2CC2)ccc1F
4. Cc1c(C(=O)Nc2ccc(F)c(-c3nc[nH]n3)c2)c(C)n(C)c1C(=O)C(=O)NC(C)(C)C

1. > 30 µM
2. > 30 µM
3. 5 to 30 µM
4. > 30 µM

Report CC50 at 7 days for each item below.
1. Cc1cc(NC(=O)c2c(C)c(C(=O)C(=O)N[C@H]3C[C@@H]4CC[C@H]3C4)n(C)c2C)ccc1F
2. Cc1c(C(=O)Nc2ccc(F)c(Br)c2)c(C)n(C)c1C(=O)C(=O)NC(C)(C)C
3. Cc1cc(NC(=O)c2c(C)c(C(=O)C(=O)N[C@H]3CC[C@@H](S(C)(=O)=O)CC3)n(C)c2C2CCCC2)ccc1F
4. Cc1cc(NC(=O)c2c(C)c(C(=O)C(=O)NCC(C)(C)O)n(C)c2C2CC2)ccc1F

["5 to 30 µM", "> 30 µM", "5 to 30 µM", "5 to 30 µM"]
